test: Beagle dog PK study 2 of Example 101 (HPβCD based formulation, IV), with clinical observations; format: in vivo; settings: beagle, dog, plasma, iv, 1 mg/kg, dog PK study 2, IV 1 mg/kg, HPβCD, Test Animal 2
measure: AUC(0-inf)

*Q* Report measured AUC(0-inf); entry is CNC(=O)c1[nH]c(C(=O)NC2CCC2)cc1O[C@@H](C)c1ccccc1 (stereo in doubt) [Example 101]
*A* 850 ng·h/mL

====

assay: Pharmacokinetics and plasma concentration of Example 101 in Lewis rats after oral administration (CIA study); format: in vivo, Lewis rat; details: Lewis, rat, plasma, po, 10 mg/kg, oral, day 0, 10 mg/kg, Mean
measure: half-life (min)
The reply should contain only the number, in min.

*Q* Please supply the value of reported half-life for the item CNC(=O)c1[nH]c(C(=O)NC2CCC2)cc1O[C@@H](C)c1ccccc1 (stereo in doubt)
*A* 193

====

assay: Beagle dog PK study 1 of Example 101 (propylene glycol-based formulation, IV and PO), with clinical observations; format: in vivo; settings: beagle, dog, plasma, po, 5 mg/kg, dog PK study 1, oral, Test Animal 2
measure: Cmax (ng/mL)
Could you give me the number in ng/mL? Just the number is fine.

*Q* Fill in reported Cmax for this entry: CNC(=O)c1[nH]c(C(=O)NC2CCC2)cc1O[C@@H](C)c1ccccc1 (stereo in doubt)
*A* 1550

====

assay: Thermodynamic solubility in FaSSIF pH 6.5 buffer; assay type: physicochemical; details: FaSSIF buffer, 25 °C, pH 6.5, fassif, thermodynamic from solid, Method 1 (UV-vis, 25° C., 24 hrs)
measure: solubility thermodynamic at 24 h (µM)
Report only the number, with the unit µM understood.

*Q* Complete the entry with solubility thermodynamic at 24 h for CNC(=O)c1[nH]c(C(=O)NC2CCC(F)(F)CC2)cc1OC(C)c1ccccc1 (single isomer, unassigned)
*A* 57

*Q* Please report solubility thermodynamic at 24 h for the following compound: CNC(=O)c1[nH]c(C(=O)N[C@H]2CC[C@H](O)CC2)cc1OC(C)c1ccccc1 (single isomer, unassigned)
*A* 418

*Q* Read off the recorded solubility thermodynamic at 24 h for CNC(=O)c1[nH]c(C(=O)N[C@H]2CC[C@H](OC)CC2)cc1OC(C)c1ccccc1 (single isomer, unassigned)
*A* 359

*Q* State its solubility thermodynamic at 24 h for this compound: CNC(=O)c1[nH]c(C(=O)NC2CCC2)cc1O[C@@H](C)c1ccccc1 (stereo in doubt)
*A* 193

*Q* Supply recorded solubility thermodynamic at 24 h for CNC(=O)c1[nH]c(C(=O)NC2CCC2)cc1OC(C)c1ccccc1 (single isomer, unassigned) here.
*A* 188

====

Exercise: for every item that follows, state its recorded Plasma Stability (% remaining at 120 minutes), Rat.
Assay: Plasma stability assay, rat plasma
Format: in vitro ADME
Settings: Method 2 (10 μM)
Method: From stock solution of compound in 10 mM DMSO, a working solution of 1 mM is prepared by diluting the compound in DMSO. […] Aliquots of the supernatant is analysed using LC-MS/MS. The percent remaining of the compound at each time point is calculated with respect to the control sample (0 min time-point). A working solution of compound (500 μM) is prepared in DMSO (100%). […] The samples are centrifuged and the supernatants analyzed using LC-MS/MS. […]
Give a bare numeral; the unit % is implied.

*Q* Identify measured Plasma Stability (% remaining at 120 minutes), Rat corresponding to "CNC(=O)c1[nH]c(C(=O)NC2CC2)cc1O[C@@H](C)c1ccc(Cl)cc1"
*A* 82

*Q* Identify measured Plasma Stability (% remaining at 120 minutes), Rat corresponding to "CNC(=O)c1[nH]c(C(=O)NC(C)C)cc1O[C@@H](C)c1ccc(Cl)cc1"
*A* 81

*Q* Provide only the value of recorded Plasma Stability (% remaining at 120 minutes), Rat for CNC(=O)c1[nH]c(C(=O)NC2COC2)cc1OC(C)c1ccc(Cl)cc1 (single isomer, unassigned)
*A* 81
